Sourced from paper PMC7849013

TGT: AmpC SBL from Escherichia coli (AmpCEC) (Escherichia coli, UniProt P00811)
Construct: made in house
Sequence (P00811 20-377): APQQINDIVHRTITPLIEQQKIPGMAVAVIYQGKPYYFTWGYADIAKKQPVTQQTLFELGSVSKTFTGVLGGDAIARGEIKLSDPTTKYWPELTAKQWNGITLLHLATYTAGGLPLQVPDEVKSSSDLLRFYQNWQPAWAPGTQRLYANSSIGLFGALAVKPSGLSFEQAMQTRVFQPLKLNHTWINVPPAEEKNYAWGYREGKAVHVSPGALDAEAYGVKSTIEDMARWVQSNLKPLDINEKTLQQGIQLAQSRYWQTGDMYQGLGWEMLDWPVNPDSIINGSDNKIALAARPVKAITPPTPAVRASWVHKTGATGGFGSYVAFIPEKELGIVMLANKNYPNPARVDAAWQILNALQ
EXPERIMENTAL_DETAILS: AmpCEC inhibition pIC50 with varied preincubation time and pH (FC-5)
Format: biochemical
TEST_CONDITIONS: pIC50, 10 min preincubation, pH 7.5

SMILES_STRUCTURE	IC50 / nM
O=C(NC1CCNCC1)[C@@H]1CC[C@@H]2CN1C(=O)N2OS(=O)(=O)O	107
NCCONC(=O)[C@@H]1CC[C@@H]2CN1C(=O)N2OS(=O)(=O)O	66.1
O=C(NNC(=O)[C@@H]1CC[C@@H]2CN1C(=O)N2OS(=O)(=O)O)[C@@H]1CCCNC1	11

* * *

Catalogue of pIC50 values
TGT: AmpC SBL from Escherichia coli (AmpCEC) (Escherichia coli)
Construct: made in house
EXPERIMENTAL_DETAILS: AmpCEC inhibition pIC50 with varied preincubation time and pH (FC-5)
Type: biochemical
TEST_CONDITIONS: pIC50, 30 min preincubation, pH 7.5
pIC50: −log10 of the molar value.
QUANTITY: pIC50

SMILES_STRUCTURE	QUANTITY	ENDPOINT_RESULT
O=C(NNC(=O)[C@@H]1CC[C@@H]2CN1C(=O)N2OS(=O)(=O)O)[C@@H]1CCCNC1	pIC50	8.12
O=C(NC1CCNCC1)[C@@H]1CC[C@@H]2CN1C(=O)N2OS(=O)(=O)O	pIC50	7.46
NCCONC(=O)[C@@H]1CC[C@@H]2CN1C(=O)N2OS(=O)(=O)O	pIC50	7.46

* * *

TGT: AmpC SBL from Escherichia coli (AmpCEC) (Escherichia coli)
Construct: made in house
EXPERIMENTAL_DETAILS: AmpCEC inhibition pIC50 with varied preincubation time and pH (FC-5)
Type: biochemical
TEST_CONDITIONS: pIC50, 30 min preincubation, pH 7.0
pIC50: −log10 of the molar value.
Catalogue of pIC50 values

SMILES_STRUCTURE	pIC50
NCCONC(=O)[C@@H]1CC[C@@H]2CN1C(=O)N2OS(=O)(=O)O	7.50
O=C(NC1CCNCC1)[C@@H]1CC[C@@H]2CN1C(=O)N2OS(=O)(=O)O	7.31
O=C(NNC(=O)[C@@H]1CC[C@@H]2CN1C(=O)N2OS(=O)(=O)O)[C@@H]1CCCNC1	8.06
